Data origin, for the record: patent US20250051332A1

- tested target: Alpha2B (Homo sapiens, UniProt P18089)
- Sequence (P18089 whole entry): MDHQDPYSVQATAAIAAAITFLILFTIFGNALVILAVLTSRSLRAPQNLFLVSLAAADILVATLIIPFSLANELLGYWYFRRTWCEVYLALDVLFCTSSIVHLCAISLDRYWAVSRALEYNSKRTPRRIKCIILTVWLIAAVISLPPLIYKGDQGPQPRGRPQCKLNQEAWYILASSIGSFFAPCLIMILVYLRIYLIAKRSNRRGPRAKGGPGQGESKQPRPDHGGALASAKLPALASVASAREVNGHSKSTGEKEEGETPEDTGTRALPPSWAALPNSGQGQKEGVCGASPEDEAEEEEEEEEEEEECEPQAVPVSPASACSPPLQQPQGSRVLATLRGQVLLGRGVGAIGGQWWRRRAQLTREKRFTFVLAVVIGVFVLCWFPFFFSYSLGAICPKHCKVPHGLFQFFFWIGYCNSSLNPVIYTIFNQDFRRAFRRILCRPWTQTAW
- protocol summary: PDSP radioligand displacement binding
- experimental setup: average of three independent trials
measure name: Ki
Your reply should be a number followed by the unit it is expressed in.

# lookup: Ki of C/C=C1/CN2CC[C@]34C(=C(C(=O)OC)[C@H]1C[C@H]23)Nc1ccc(Br)cc14 [Compound 2, 10-Bromoakuammicine]
1250 nM

====

- tested target: 5-HT3 (Homo sapiens, UniProt P46098)
- Sequence (P46098 24-478, species assumed): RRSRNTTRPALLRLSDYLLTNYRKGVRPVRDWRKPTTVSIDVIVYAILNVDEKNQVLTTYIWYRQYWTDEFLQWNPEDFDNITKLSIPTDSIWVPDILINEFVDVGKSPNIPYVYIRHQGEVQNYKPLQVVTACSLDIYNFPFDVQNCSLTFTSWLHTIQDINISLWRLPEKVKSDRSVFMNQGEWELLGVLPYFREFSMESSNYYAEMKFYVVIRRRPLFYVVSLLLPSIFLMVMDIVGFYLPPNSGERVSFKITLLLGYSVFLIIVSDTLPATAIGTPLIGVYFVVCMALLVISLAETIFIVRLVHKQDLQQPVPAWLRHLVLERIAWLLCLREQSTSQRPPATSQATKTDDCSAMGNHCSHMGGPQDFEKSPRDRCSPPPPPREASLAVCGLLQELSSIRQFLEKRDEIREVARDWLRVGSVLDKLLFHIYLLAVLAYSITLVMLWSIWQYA
- protocol summary: PDSP radioligand displacement binding
- experimental setup: average of three independent trials
measure name: Ki (nM)
Kindly provide the numeric value in nM only, without the unit symbol.

compound	result
C/C=C1/CN2CC[C@]34C(=C(C(=O)OC)[C@H]1C[C@H]23)Nc1ccc(I)cc14 [Compound 3, 10-Iodoakuammicine]	384

Now turn to the next compound.
# lookup: Ki of C/C=C1/CN2CC[C@]34C(=C(C(=O)OC)[C@H]1C[C@H]23)Nc1ccc(Br)cc14 [Compound 2, 10-Bromoakuammicine]
210
